# dose excreted at 27 h per record follows
- METHOD_NOTES: secretion of compound in urine after intramuscular administration in rabbits
- Format: in vivo, rabbits (Nieuw Zeelander)
- CONDITION_SUMMARY: rabbit, im, after 27 hrs., 50 mg/kg intramuscular, average, read-out: Secretion of compound in urine in % of the administered dose
Respond numerically; units are % and should not be typed.

COMPOUND	READOUT_NAME	READOUT_UNITS	RESULT
CC(=O)OCC1=C(C(=O)O)N2C(=O)C(NC(=O)Cc3cc(C)no3)C2SC1 (centres unmarked)	dose excreted at 27 h	%	46.9

**Query** Report dose excreted at 27 h for CC(=O)OCC1=C(C(=O)O)N2C(=O)[C@@H](NC(=O)Cc3cccs3)[C@H]2SC1 [Cephalotin, reference compound] please.
**Result** 26.9

* * *

- Test system: Diplococcus pneumoniae L 54
- METHOD_NOTES: MIC, agar serial dilution test
- Assay type: cell-based
- CONDITION_SUMMARY: Streptococcus pneumoniae, L54; Diplococcus pneumoniae L 54; 24 hours at 37° C; read-out: MIC
Catalogue of log10 MIC values
On a log10 scale: recorded MIC, unit mg/L.

Recorded log10 MIC, per entry:
MOLECULE	READOUT_NAME	RESULT
CC1(C)SC2C(NC(=O)Cc3cc(C45CC6CC(CC(C6)C4)C5)no3)C(=O)N2C1C(=O)O (centres unmarked) [Example XVI]	log10 MIC	-1.22
CC1=C(C(=O)O)N2C(=O)C(NC(=O)Cc3onc(-c4c(C)cc(C)cc4C)c3C)C2SC1 (centres unmarked) [XIII]	log10 MIC	0.18
Cc1cc(C)c(-c2cc(CC(=O)NC3C(=O)N4C3SC(C)(C)C4C(=O)O)on2)c(C)c1 (centres unmarked) [VI]	log10 MIC	-1.52
CC1=C(C(=O)O)N2C(=O)C(NC(=O)Cc3onc(-c4c(Cl)cccc4Cl)c3C)C2SC1 (centres unmarked) [VIII]	log10 MIC	0.00
CC1=C(C(=O)O)N2C(=O)C(NC(=O)Cc3cc(-c4c(Cl)cccc4Cl)no3)C2SC1 (centres unmarked) [Example IV]	log10 MIC	-0.12

Could you now look at the following molecule, please?
**Query** I'm curious: which log10 MIC was measured for CC1(C)S[C@@H]2C(NC(=O)Cc3onc(-c4c(Cl)cccc4Cl)c3C(=O)O)C(=O)N2[C@H]1C(=O)O (some centres unmarked) [Example V] tested on Diplococcus pneumoniae L 54?
**Result** 0.78

* * *

Entries and their MIC
- Test system: Bacillus subtilis ATCC 6633
- METHOD_NOTES: MIC, agar serial dilution test
- Assay type: cell-based
- CONDITION_SUMMARY: ATCC6633; Bacillus subtilis ATCC 6633; 24 hours at 37° C; read-out: MIC
Report the figure in µg/mL without appending any unit label.

Consider the reported MIC for these molecules:
MOLECULE	RESULT
CC1(C)SC2C(NC(=O)Cc3onc(-c4c(Cl)cccc4Cl)c3C(N)=O)C(=O)N2C1C(=O)O (stereo not shown)	3
CC(=O)OCC1=C(C(=O)O)N2C(=O)C(NC(=O)Cc3cc(C(C)(C)C)no3)C2SC1 (stereo not shown)	0.75
Cc1cc(C)c(-c2cc(CC(=O)NC3C(=O)N4C3SC(C)(C)C4C(=O)O)on2)c(C)c1 (stereo not shown)	0.03
CC1(C)SC2C(NC(=O)C(C(N)=O)c3cc(-c4c(Cl)cccc4Cl)no3)C(=O)N2C1C(=O)O (stereo not shown)	0.25

**Query** Any idea what MIC was measured for CC1(C)SC2C(NC(=O)C(NC(=O)OCc3ccc([N+](=O)[O-])cc3)c3cc(-c4c(Cl)cccc4Cl)no3)C(=O)N2C1C(=O)O (stereo not shown) ?
**Result** 0.5

**Query** What MIC value was documented for this molecule, CC(=O)OCC1=C(C(=O)O)N2C(=O)C(NC(=O)Cc3cc(C)no3)C2SC1 (stereo not shown) ?
**Result** 0.06

**Query** # get_value(readout='MIC', item= Cc1c(-c2c(Cl)cccc2Cl)noc1CC(=O)NC1C(=O)N2C1SC(C)(C)C2C(=O)O (stereo not shown) )
**Result** 0.005

**Query** MIC lookup needed for CC1(C)SC2C(NC(=O)Cc3cc(-c4c(Cl)cccc4Cl)no3)C(=O)N2C1C(=O)O (stereo not shown) , thanks.
**Result** 0.007

**Query** Report MIC for CC1(C)S[C@@H]2C(NC(=O)Cc3onc(-c4c(Cl)cccc4Cl)c3C(=O)O)C(=O)N2[C@H]1C(=O)O (stereo partly shown) please.
**Result** 0.5

**Query** Given CC1(C)SC2C(NC(=O)C(N)c3cc(-c4c(Cl)cccc4Cl)no3)C(=O)N2C1C(=O)O (stereo not shown) , state its recorded MIC.
**Result** 0.06

**Query** Looking for the measured MIC of Cc1cc(C)c(-c2cc(C(C)C(=O)NC3C(=O)N4C3SC(C)(C)C4C(=O)O)on2)c(C)c1 (stereo not shown) , can you help?
**Result** 0.06

**Query** MIC lookup needed for CC1(C)SC2C(NC(=O)Cc3cc(C45CC6CC(CC(C6)C4)C5)no3)C(=O)N2C1C(=O)O (stereo not shown) , thanks.
**Result** 0.03

**Query** // lookup MIC for CC1=C(C(=O)O)N2C(=O)C(NC(=O)Cc3cc(-c4c(Cl)cccc4Cl)no3)C2SC1 (stereo not shown)
**Result** 1

**Query** Any idea what MIC was measured for Cc1cc(CC(=O)NC2C(=O)N3[C@@H]2SC(C)(C)[C@@H]3C(=O)O)on1 (stereo partly shown) ?
**Result** 0.06

**Query** What does the data say about its MIC? Entry: Cc1cc(C)c(-c2cc(C(Cl)C(=O)NC3C(=O)N4C3SC(C)(C)C4C(=O)O)on2)c(C)c1 (stereo not shown)
**Result** 0.12

**Query** Please give the measured MIC for this molecule: CC1=C(C(=O)O)N2C(=O)C(NC(=O)Cc3onc(-c4c(C)cc(C)cc4C)c3C)C2SC1 (stereo not shown)
**Result** 1

**Query** MIC lookup needed for CC(=O)OCC1=C(C(=O)O)N2C(=O)C(NC(=O)Cc3cc(-c4c(C)cc(C)cc4C)no3)C2SC1 (stereo not shown) , thanks.
**Result** 0.015

**Query** For the molecule shown here, Cc1onc(-c2ccccc2Cl)c1C(=O)N[C@@H]1C(=O)N2[C@@H]1SC(C)(C)[C@@H]2C(=O)O [Cloxazilline, Cloxacillin, reference compound] , give the reported MIC.
**Result** 0.25

**Query** Data request, read-out MIC, for CC1(C)SC2C(NC(=O)Cc3onc(-c4c(Cl)cccc4Cl)c3C#N)C(=O)N2C1C(=O)O (stereo not shown)
**Result** 0.25

**Query** GET /values?readout=MIC&item= CCOc1ccc2ccccc2c1C(=O)N[C@@H]1C(=O)N2[C@@H]1SC(C)(C)[C@@H]2C(=O)O [Nafcilline, Nafcillin, reference compound]
**Result** 0.5

**Query** # input molecule: CC(=O)OCC1=C(C(=O)O)N2C(=O)C(NC(=O)Cc3onc(-c4c(C)cc(C)cc4C)c3C)C2SC1 (stereo not shown) ; wanted: its MIC
**Result** 0.06

**Query** Which MIC value is on record for CC1=C(C(=O)O)N2C(=O)C(NC(=O)Cc3onc(-c4c(Cl)cccc4Cl)c3C)C2SC1 (stereo not shown) ?
**Result** 0.25

**Query** MIC lookup needed for Cc1onc(-c2c(Cl)cccc2Cl)c1C(=O)N[C@@H]1C(=O)N2[C@@H]1SC(C)(C)[C@@H]2C(=O)O [Dicloxacillin, reference compound] , thanks.
**Result** 0.12

* * *

- METHOD_NOTES: in vivo
- Parameters: species or system rabbits
- CONDITION_SUMMARY: rabbit, im, 50 mg/kg
- From the text: C. Serum levels of the tested compound and dicloxacillin.
READOUT_NAME: concentration at 2 h (ng/mL)
The reply should be a number in ng/mL, with the unit left off.

**Query** Need concentration at 2 h of Cc1onc(-c2c(Cl)cccc2Cl)c1C(=O)N[C@@H]1C(=O)N2[C@@H]1SC(C)(C)[C@@H]2C(=O)O [Dicloxacillin, reference compound] , thanks.
**Result** 18800

* * *

- Tested on: Staphylococcus aureus A321
- METHOD_NOTES: MIC, agar serial dilution test
- Format: cell-based
- CONDITION_SUMMARY: Staphylococcus aureus A321; 24 hours at 37° C; read-out: MIC
Doc: threshold 0.5 µg/mL (exclusive). Items with MIC beneath it return T; others return F.

Sample answers from the record:
COMPOUND	CATEGORY_LABEL
CC1(C)SC2C(NC(=O)Cc3onc(-c4c(Cl)cccc4Cl)c3C#N)C(=O)N2C1C(=O)O (centres unmarked) [Example XV]	F
CC1(C)SC2C(NC(=O)Cc3cc(-c4c(Cl)cccc4Cl)no3)C(=O)N2C1C(=O)O (centres unmarked) [Example I]	T
CC1(C)SC2C(NC(=O)Cc3cc(-c4ccc([N+](=O)[O-])cc4)no3)C(=O)N2C1C(=O)O (centres unmarked) [XIX]	T
CC(=O)OCC1=C(C(=O)O)N2C(=O)C(NC(=O)Cc3onc(-c4c(C)cc(C)cc4C)c3C)C2SC1 (centres unmarked) [XII]	T
Cc1cc(C)c(-c2cc(C(Cl)C(=O)NC3C(=O)N4C3SC(C)(C)C4C(=O)O)on2)c(C)c1 (centres unmarked) [Example IX]	T

Moving on to another compound below.
**Query** Quick check: MIC of CC1(C)SC2C(NC(=O)Cc3onc(-c4c(Cl)cccc4Cl)c3C(N)=O)C(=O)N2C1C(=O)O (centres unmarked) [XIV] under 0.5 µg/mL?
**Result** F
